Values from ChEMBL document CHEMBL3885861

# Organism: Rattus norvegicus
# TEST: Open TG-GATES - Regimen: Daily Repeat
# Assay type: toxicity, organism-based, Sprague-Dawley
# Design: regimen Daily Repeat, gender Male, age 6 weeks
# TEST_CONTEXT: in vivo, po, 300 mg/kg, […], tissue Blood, route gavage, dose level Middle, time 7 day
MEASUREMENT_KIND: Eos
Reply with a number, then the unit it belongs to.

Given `O=C(N[C@H](CO)[C@H](O)c1ccc([N+](=O)[O-])cc1)C(Cl)Cl` , respond with its Eos.
1%

Hello, please tell me recorded Eos for this one: CCN1CCCC1CNC(=O)c1cc(S(N)(=O)=O)ccc1OC (centres undefined) [SULPIRIDE]
1%

Supply reported Eos belonging to this compound: `CC(C)(S)[C@@H](N)C(=O)O`
1.4%

Report Eos, nothing else, for this compound: `O=C(O)c1cccnc1`
1%
